assay.target: UniProt:Q96GD4
experiment: Inhibition of Aurora kinase B-mediated histone H3 Ser10 phosphorylation in human HCT116 cells after 2 hrs by sandwich ELISA
measure.name: IC50 (nM)

# count of solved cases: 2
1. Cc1cc(Nc2nc(Sc3ccc(NC(=O)CN4CC[C@@H](C(=O)NCC(F)(F)F)C4)cc3)nn3cccc23)n[nH]1; 7
2. Cc1cc(Nc2nc(Sc3ccc(NC(=O)CN4CC[C@@H](C(=O)NC5CCCC5)C4)cc3)nn3cccc23)n[nH]1; 3

P. Cc1cc(Nc2nc(Sc3ccc(NC(=O)CN4CC[C@@H](C(=O)N5CCOCC5)C4)cc3)nn3cccc23)n[nH]1
Q. Cc1cc(Nc2nc(Sc3ccc(NC(=O)CN4CC[C@H](O)C4)cc3)nn3cccc23)n[nH]1
R. Cc1cc(Nc2nc(Sc3ccc(NC(=O)CN4CC[C@@H](OCCN5CCN(C)CC5)C4)cc3)nn3cccc23)n[nH]1
Request: Put the entries in order of IC50, starting with the largest number. Please, when replying, give the labels in the order that was requested.
Result: Q, R, P
(Q: 420 nM, R: 169 nM, P: 14.6 nM)

---

assay.target: Aurora kinase B (Homo sapiens, UniProt Q96GD4)
Sequence (Q96GD4 whole entry): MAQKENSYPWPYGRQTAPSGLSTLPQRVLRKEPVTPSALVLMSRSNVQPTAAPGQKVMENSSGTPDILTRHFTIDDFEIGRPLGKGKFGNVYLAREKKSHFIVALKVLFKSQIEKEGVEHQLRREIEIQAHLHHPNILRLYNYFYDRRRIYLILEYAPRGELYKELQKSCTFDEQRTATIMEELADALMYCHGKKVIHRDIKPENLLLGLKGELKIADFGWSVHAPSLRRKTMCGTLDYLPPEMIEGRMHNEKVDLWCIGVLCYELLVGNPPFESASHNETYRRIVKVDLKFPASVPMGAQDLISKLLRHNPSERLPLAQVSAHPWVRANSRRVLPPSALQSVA
measure.name: Kd (nM)

A selection of reference data follows.
1. Cc1cc(Nc2nc(Sc3ccc(NC(=O)CN4CC[C@@H](OCCCN5CCOCC5)C4)cc3)nn3cccc23)n[nH]1; 3.7
2. Cc1cc(Nc2nc(Sc3ccc(NC(=O)CN4CC[C@@H](NS(C)(=O)=O)C4)cc3)nn3cccc23)n[nH]1; 3.2

I. Cc1cc(Nc2nc(Sc3ccc(NC(=O)CN4CC[C@@H](C(=O)NCCN5CCOCC5)C4)cc3)nn3cccc23)n[nH]1
II. Cc1cc(Nc2nc(Sc3ccc(NC(=O)CN4CC[C@@H](SC(C)(C)C)C4)cc3)nn3cccc23)n[nH]1
Request: Which shows the larger Kd value: I or II ? The response must carry the label of the picked entry.
Result: II
